Source listed as the supplement of paper PMC3545927.

molecular target: furin, P09958; assay: furin cleavage Z-score vs untreated control; higher = more cleavage, active = 3.5 or more, inactive = 1 or less, 8 variable residues between constant flanks; details: 30 min;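 further: purified furin at 1:10 enzyme:substrate in 50 mM HEPES pH 7.5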
Sequence (P09958 whole entry): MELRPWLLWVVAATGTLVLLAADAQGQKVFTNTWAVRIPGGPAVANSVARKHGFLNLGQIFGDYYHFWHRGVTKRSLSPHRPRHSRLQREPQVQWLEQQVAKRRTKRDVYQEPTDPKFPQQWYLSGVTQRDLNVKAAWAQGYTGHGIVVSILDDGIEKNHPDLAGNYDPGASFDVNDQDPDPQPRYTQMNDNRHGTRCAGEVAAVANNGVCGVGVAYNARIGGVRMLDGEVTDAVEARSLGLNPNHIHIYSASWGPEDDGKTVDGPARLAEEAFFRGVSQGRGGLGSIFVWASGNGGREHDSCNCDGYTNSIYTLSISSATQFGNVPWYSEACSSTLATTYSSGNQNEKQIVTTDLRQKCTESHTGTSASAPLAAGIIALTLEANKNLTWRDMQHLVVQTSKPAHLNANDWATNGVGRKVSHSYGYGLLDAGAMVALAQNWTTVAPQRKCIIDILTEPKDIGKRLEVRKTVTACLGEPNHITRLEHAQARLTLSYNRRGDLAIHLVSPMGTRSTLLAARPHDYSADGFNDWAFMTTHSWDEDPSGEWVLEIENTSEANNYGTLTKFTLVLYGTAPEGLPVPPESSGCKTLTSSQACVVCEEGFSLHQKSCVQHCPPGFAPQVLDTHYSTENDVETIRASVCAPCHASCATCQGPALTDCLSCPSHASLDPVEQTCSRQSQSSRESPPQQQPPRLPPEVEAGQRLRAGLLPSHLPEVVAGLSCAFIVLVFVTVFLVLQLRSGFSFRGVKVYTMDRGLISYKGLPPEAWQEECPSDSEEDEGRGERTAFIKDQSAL
This is one part of the list. How many sequences the whole screen found active is unknown.
Below, each entry is listed with its recorded furin cleavage Z-score.
Field format: numeric only.

Ask: # lookup: furin cleavage Z-score of CAEMVTSTWVAGNASASA [HC2166]
Reply: -0.181

Ask: # lookup: furin cleavage Z-score of CARASRDSSEAGNASASA [FS-2892]
Reply: -0.0253

Ask: # lookup: furin cleavage Z-score of CATRSRSERDAGNASASA [FS-884]
Reply: 0.745

Ask: # lookup: furin cleavage Z-score of CAVPCCSMSYAGNASASA [HC2019]
Reply: 1.91

Ask: # lookup: furin cleavage Z-score of CALRKRLTPLAGNASASA [FS-1883]
Reply: 0.456

Ask: # lookup: furin cleavage Z-score of CAPLTRSKRDAGNASASA [FS-700]
Reply: 10.2

Ask: # lookup: furin cleavage Z-score of CANWAKVLVVAGNASASA [HC344]
Reply: 1.26

Ask: # lookup: furin cleavage Z-score of CASTPCSAELAGNASASA [HC2552]
Reply: 0.789

Ask: # lookup: furin cleavage Z-score of CARRVRSAEEAGNASASA [FS-2376]
Reply: 6.7

Ask: # lookup: furin cleavage Z-score of CARMKRKVGAAGNASASA [FS-1752]
Reply: 4.95

Ask: # lookup: furin cleavage Z-score of CAQGYKVLVLAGNASASA [HC784]
Reply: -0.768

Ask: # lookup: furin cleavage Z-score of CARRVRSRTHAGNASASA [FS-3071]
Reply: 1.9

Ask: # lookup: furin cleavage Z-score of CALRKRLLRDAGNASASA [FS-686]
Reply: 8.89

Ask: # lookup: furin cleavage Z-score of CARQPRLVGAAGNASASA [FS-2171]
Reply: -0.39

Ask: # lookup: furin cleavage Z-score of CARRVRSVILAGNASASA [FS-2301]
Reply: 1.3
